Examples of compounds with documented MIC follow.
Tested on: Streptococcus pneumoniae
Test: Antibacterial activity against erythromycin-resistant Streptococcus pneumoniae A22072 expressing mefA gene
Format: functional
result_type: MIC

chemical_smiles=CC[C@H]1OC(=O)[C@H](C)[C@@H](O[C@H]2C[C@@](C)(OC)[C@@H](OC(=O)NCc3cn(Cc4ccc(C)cc4)nn3)[C@H](C)O2)[C@H](C)[C@@H](O[C@@H]2O[C@H](C)C[C@H](N(C)C)[C@H]2O)[C@](C)(O)C[C@@H](C)CN(C)[C@H](C)[C@@H](OC(=O)NCc2ccccc2)[C@]1(C)O result_type=MIC result="0.125 µg/mL"
chemical_smiles=CC[C@H]1OC(=O)[C@H](C)[C@@H](O[C@H]2C[C@@](C)(OC)[C@@H](OC(=O)NCc3cn(Cc4ccc(Cl)cc4Cl)nn3)[C@H](C)O2)[C@H](C)[C@@H](O[C@@H]2O[C@H](C)C[C@H](N(C)C)[C@H]2O)[C@](C)(O)C[C@@H](C)CN(C)[C@H](C)[C@H]2OC(=O)O[C@@]21C result_type=MIC result="1 µg/mL"
chemical_smiles=CC[C@H]1OC(=O)[C@H](C)[C@@H](O[C@H]2C[C@@](C)(OC)[C@@H](OC(=O)NCc3cn(Cc4ccc(Br)cc4)nn3)[C@H](C)O2)[C@H](C)[C@@H](O[C@@H]2O[C@H](C)C[C@H](N(C)C)[C@H]2O)[C@](C)(O)C[C@@H](C)CN(C)[C@H](C)[C@H]2OC(=O)O[C@@]21C result_type=MIC result="1 µg/mL"
